B1: tRNA (parent)
chain: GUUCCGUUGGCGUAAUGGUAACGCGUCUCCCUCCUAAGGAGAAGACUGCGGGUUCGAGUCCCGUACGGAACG

variants of: B1; assay: yeast fitness relative to wild type (ratio to wild type); higher = fitter; tRNA-Arg(CCU), competitive growth, 37 C, YPD
Fewer inactive variants are shown than the library holds.

biosequence: GUUCCGUUGGGGUAAUGGUAACGCGUCUCCCUCCUAAGGAGAAGAGUGCGGGUUCGAGUCCCGUACGGAACG [C11G C46G]
op: =
yeast fitness: 0.75

biosequence: GUUCCGUUGGCGUAAUAGUAACGCGUCUCUCUCCUAAGGUGAAGACUGCGGGUUCGUGUCCCGUACGGAACG [G17A C30U A40U A57U]
op: ≤
yeast fitness: 0.5

biosequence: GUUCCGUUGGCGUAAUGGUAACGCGUCUCCCUCCUAAGGAGAAGACUGGGGGUUCGAGUUCUGAACGGAACG [C49G C60U C62U U64A]
op: ≤
yeast fitness: 0.5

biosequence: GUUCCGUUGGCGUAAUGGUAACGCGUCUCUCUCCUGAGGAGAAGACUGCGGGUUCGAGUCGCGUACGGAACG [C30U A36G C61G]
op: ≤
yeast fitness: 0.5

biosequence: GUUCCGUUGGCGUAAUGGUAACGCGUCUACUUCCUAAGGAGAUGACUGCGGGUUCGAGUCCCGUACGGAACG [C29A C31U A43U]
op: =
yeast fitness: 0.506

biosequence: GUUCCGUUGGCGUAAGGGUAACGCGUCUCCCUCGUACGGAGAAGACUGCGGGUUCGAGUCCCGUACGGAACG [U16G C34G A37C]
op: =
yeast fitness: 0.706

biosequence: GUUCGGUUGGCAUAAUGGUAACGCGUCUCCCUCCUAAGGAGAGGACUGCGGGUUCGAGUCCCGUACGGAACG [C5G G12A A43G]
op: =
yeast fitness: 0.536

biosequence: GUUCCGUUGGCGUAAUGGUAACGCGUCUCCCUCCUAAGGAGAAGACUGCGGGUUCGAGUCCCGUACUCAACG [G67U G68C]
op: =
yeast fitness: 0.773

biosequence: GUUACGUUGGCGUAAUGGUAACGCGUCUCCCUCCUAAGGAGUAGACUGCGGGUUCGAGUCCCGUACGGUACG [C4A A42U A69U]
op: =
yeast fitness: 0.625

biosequence: GUUCCGUUGGCGUAAUGGUAACGCGUUUCCAUCCUAAGGAGAAGACUGCGGGAUCGAGUCCCGUACGGAACG [C27U C31A U53A]
op: ≤
yeast fitness: 0.5

biosequence: GUUCCCUUGGGGUACUGGUAACGCCUGUCGCUCCUAACGAGAAGACUGCGGGUUCGAGUCCCGUACGGAGCG [G6C C11G A15C G25C C27G C30G G38C A70G]
op: ≤
yeast fitness: 0.5

biosequence: GUUCAGUUGGCGUAAUGGUAACGCGUGUCCCUCCUAAGGAGAAGACCGCGGGUUCGAGUCCCGUACGGAUCG [C5A C27G U47C A70U]
op: =
yeast fitness: 0.578

biosequence: GUUCCGUUGGUGCAAUGGUAACGCGUCUCUCUCCUAAGGAGAGGACUGCGGGUUCGAGUCCCGUACGGAACG [C11U U13C C30U A43G]
op: ≤
yeast fitness: 0.5

biosequence: GUUCCGUUGGCGUAAUGGUGACGCGUCGCCUUCCUAAGGAGAAGACUGCGGGUUCGAGUCCCGUACGGAACG [A20G U28G C31U]
op: =
yeast fitness: 0.588

biosequence: GUUCCGUUGGCGUAAUAGUAACGCGUCUCCCUCGUAAGGAGAAGACUGCGGGUUCGAGUCCCGUACGGAACG [G17A C34G]
op: =
yeast fitness: 0.569

biosequence: GUUCCGUUAGCGUAAUGGUAACGGGUCUCCCUCGUAAGGAGAAGCCUGCGGGUUCGAGUCCCGUGCGGAACG [G9A C24G C34G A45C A65G]
op: ≤
yeast fitness: 0.5

biosequence: GUUCCGUUGGCGUAAUGGUAACGCGUCUUCCUCCUAAGGAGAGGACUGCGGGUUCGAGUCCCGUACGGAACG [C29U A43G]
op: =
yeast fitness: 0.883

biosequence: GUCCCGUUGGCGUAAUGGUAACGCGUCUCCCUCCUAAGGAGCAGACUGCGGGUUCGAGUCCCGUACGGCACG [U3C A42C A69C]
op: =
yeast fitness: 0.978

biosequence: GUUCCGUUGGCGUAAUGGUAACGCGUCUCACUCCUAAGGAGCAGACUGCGGGUUCGAGUCCCGUACGGGACG [C30A A42C A69G]
op: ≤
yeast fitness: 0.5

biosequence: GUUCCGUUGACGUAAUGGUAACGCGUUUCCCUCCUAAGGAGAAGACUGCGGGUUCAAGUUCCGUACGGAACG [G10A C27U G56A C60U]
op: =
yeast fitness: 0.556

biosequence: GUUCCGUUGGUGUAAUGGUAACGCGUCUCCCUCCAAAAGAGAAGACUGCGGGUUGGAGUCCCGUACGGAACG [C11U U35A G38A C55G]
op: ≤
yeast fitness: 0.5

biosequence: GUUCCGUUGGCGUAAUGGUAACGCGUCACCCUGCUAAGGAGAAGACUGGUGGUUCGAGUCCCGUACGGAACG [U28A C33G C49G G50U]
op: ≤
yeast fitness: 0.5
